- target.or.test.system: RSV F on RSV subtype B virus (mKate-RSV B 18537) (respiratory syncytial virus B 18537, UniProt P13843 26-574)
- Sequence (P13843 26-574): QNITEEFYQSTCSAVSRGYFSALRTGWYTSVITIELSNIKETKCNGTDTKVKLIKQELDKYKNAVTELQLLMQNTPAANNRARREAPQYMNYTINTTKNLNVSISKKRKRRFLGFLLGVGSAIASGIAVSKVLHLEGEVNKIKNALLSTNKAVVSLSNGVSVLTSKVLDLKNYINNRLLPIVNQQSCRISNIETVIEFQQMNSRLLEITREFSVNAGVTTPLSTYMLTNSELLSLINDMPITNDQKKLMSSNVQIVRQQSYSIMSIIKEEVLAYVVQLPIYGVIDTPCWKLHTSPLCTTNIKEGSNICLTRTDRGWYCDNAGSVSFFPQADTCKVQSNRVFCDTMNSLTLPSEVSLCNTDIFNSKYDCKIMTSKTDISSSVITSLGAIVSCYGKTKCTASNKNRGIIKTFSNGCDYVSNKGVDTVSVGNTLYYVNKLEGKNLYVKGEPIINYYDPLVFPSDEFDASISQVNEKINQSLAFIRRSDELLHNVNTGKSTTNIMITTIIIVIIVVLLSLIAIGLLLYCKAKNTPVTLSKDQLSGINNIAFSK
- assay.overview: cell-based or functional assay
property.label: Neut IC50 subtype B (µg/mL)
Please respond with the number in µg/mL and leave the unit unwritten.

- binder: "ADI-25532 (antibody, V domains shown, full-length IgG) VH: QVQLVQSGGGLVKPGGSLRLSCAASGFTFSSYSMNWVRQAPGKGLEWVSSISSSSSYIYYADSVKGRFTISRDNAKNSLYLQMNSLRAEDTAVYYCARGSSSSWYYFDYWGQGTLVTVSS VL: QSVVTQPPSVSGAPGQRVTISCTGSSSNIGAGYDVHWYQQLPGTAPKLLIYGNSNRPSGVPDRFSGSKSGTSASLAITGLQAEDEADYYCQSYDSSLSYVFGTGTKVTVL"
  quantitative.result: 0.05
- binder: "ADI-25549 (antibody, V domains shown, full-length IgG) VH: QVQLVQSGGGLVKPGGSLRLSCAASGFTFSSYSMNWVRQAPGKGLEWVSSISSSSSYIYYADSVKGRFTISRDNAKNSLYLQMNSLRAEDTAVYYCARVSSGWYGGGAYYFDYWGQGTLVTVSS VL: QSVVTQPPSVSGAPGQRVTISCTGSSSNIGAGYDVHWYQQLPGTAPKLLIYGNSNRPSGVPDRFSGSKSGTSASLAITGLQAEDEADYYCQSYDSSLSALYVFGTGTKVTVL"
  quantitative.result: 6.02
- binder: "ADI-19458 (antibody, V domains shown, full-length IgG) VH: EVQLVESGGGRVKPGGSLRLSCAASGFTFRSYSMNWVRQAPGKGLEWVSSISSSSSYINYADSVKGRFTISRDNAKNSLYLQMNSLRAEDTAVYYCARDGSGMTIFGVVIDYWGQGTLVTVSS VL: QSVLTQPPSVSGAPGQRVTISCTGSSSNIGAGYDVHWYQQLPGTAPKLLIYGNSNRPSGVPDRFSGSKSGTSASLAITGLQAEDEADYYCQSYDRSLTVVFGGGTKLTVL"
  quantitative.result: 0.07
- binder: "ADI-14334 (antibody, V domains shown, full-length IgG; also called Ab 2) VH: EVQLVESGGGLVKPGGSLRLSCAASGVTVSSYYMTWVRQAPGKGLEFISDISSSSTYTNYADSVKGRFTISRDNAKSSLYLQMNNLRAEDTAVYYCARLGITVTGVGYFDLWGRGTLVTVSS VL: QPGLTQPPSVSGAPGQRVTISCTGSSSNIGAGYDVHWYQQLPGTAPKLLIHDNNNRPSGVPDRFSGSKSGTSASLAITGLQVEDEADYYCQSYDSSLSNYVFGTGTKLTVL"
  quantitative.result: 0.11
- binder: "ADI-19501 (antibody, V domains shown, full-length IgG) VH: QVQLVQSGAEVKKPGASVKVSCKASGYAFTNYGVSWVRQAPGQGLEWMGWISVYNGNTNYAQKLQGRVTMTTDTSTSTAYMELRSLRSDDTALYYCARDPPSEGAAGLFDYWGQGTLVTISS VL: DIVMTQSPLSLPVTLGQPASFSCRSSQSLVYSDGNTYLSWFQQRPGQSPRRLIYKVSNRDSGVPDRFSGSGSGTDFTLKISRVEAEDVGVYYCMQGTHWPCTFGQGTKVEIK"
  quantitative.result: 0.02
- binder: "ADI-14338 (antibody, V domains shown, full-length IgG; also called Ab 6) VH: EVQLVESGGGVVQPGRPLRLSCAASGFTFSTYDLYWVRQAPGKGLDWVAIISPDGNKKYYADSVKGRFTISRDNSKNTLFLHMNSLRAEDTAVYYCARDYGNYFGSGSYYRYFDLWGRGTLVTVSS VL: DIQLTQSPSSLSASVGDRVTITCRASQSISSHLNWYQQKPGKAPKLLIYASSSLQSGVPSRFSGSGSGTDFTLTISGLQPEDFATYYCQQSYSTPFTFGPGTKVEIK"
  quantitative.result: 10.2

IN: Hello, please tell me recorded Neut IC50 subtype B for this one: ADI-22774 (antibody, V domains shown, full-length IgG) VH: EVQLLESGGGLVKPGGSLRLSCAASGFTFSSYSMNWVRQAPGKGLEWVSSISSSSSYIYYADSVKGRFTISRDNAKNSLYLQMNSLRAEDTAVYYCAREGASGYNYRYYFDYWGQGTLVTVSS VL: QSVLTQPPSVSGAPGQRVTISCTGSSSNIGAGYDVHWYQQFPGAAPKLLIYGNNNRPSGVPDRFSGSKSGTSASLAITGLQADDEADYYCQSYDSSLSGYVVFGGGTKLTVL
OUT: 7.53

IN: Given ADI-24828 (antibody, V domains shown, full-length IgG; also called Ab 390) VH: EVQLVESGGGLVKPGGSLRLACAASGFSFRSYRMNWVRQAPGKGLEWVSSISSSSSYIDYADSVKGRFTISRDNAKNTVYLQVNSLRAEDTAVYYCARDGRTIFGVVIDYWGQGTLVTVSS VL: QSVLTQPPSVSGAPGQRVTISCTGSSSNIGAGYDVHWYQQLPGTAPKLLIYGNNNRPSGVPDRFSGSKSGTSASLVITGLQAEDEADYYCQSYDSSLSVVFGGGTKLTVL , respond with its Neut IC50 subtype B.
OUT: 0.04

IN: Assign Neut IC50 subtype B to the following record: ADI-14355 (antibody, V domains shown, full-length IgG; also called Ab 23) VH: EVQLVESGPTLVKPTQTLTLTCTFSGFSLSTSGVGVGWIRQPPGKALEWLAVIYWDDDKTYSPSLKSRLTITKDTSKNQVVLTMTNMNPVDTATYYCARCPAPVYSYGVDVWGQGTTVTVSS VL: QSALTQPASVSGSPGQSITISCTATSSDFGGYDYVSWYQQHPGEAPKLMISDVTNRPSGVSNRFSGSKSGNTASLTISGLQAEDEADYYCSSYTSYTTPYVFGTGTKLTVL
OUT: 4.72

IN: Recall and state the measured Neut IC50 subtype B for ADI-19459 (antibody, V domains shown, full-length IgG) VH: QVQLVESGGGLVQPGGSLRLSCAASGFTVSSNYMSWVRQAPGKGLEWVSVIYSGGSTYYADSVKGRFTISRDNSKNTLYLQMNSLRAEDTAVYYCAREALGMDHWYFDLWGRGTLVTVSS VL: SYELMQPPSVSVAPGKTARITCGGNNIGSKSVHWYQQKPGQAPVLVVYDDSDRPSGIPERFSGSNSGNTATLTISRVEAGDEADYYCQVWDSSSDHPVFGGGTKVTVL .
OUT: 0.1

All figures here come from patent US20260258115A1.
